# Test system: NCI-H522 lung
# EXPERIMENTAL DETAILS: NCI-60 one-dose screen, 48 h
# APPLIED CONDITIONS: 10 µM unless noted
This is part of a sample that, as a whole, favours compounds with a hit. Of some 83,000 tested, about 20% had one in any assay. Calls of active or inactive are those of the source. How the source made its calls: active means growth percent below 10; inactive means the rest.
Respond using exactly one of the listed classes: class 1 = active, class 0 = inactive

1. CSC1=C(N)C(=O)c2[nH]cc(CO)c2C1=N ... class 1
2. CCN1/C(=C/C=C/c2n(-c3ccccc3)c3ccc(-c4nc5ccccc5s4)cc3[n+]2CC)N(c2ccccc2)c2ccc(-c3nc4ccccc4s3)cc21 ... class 1
3. Cc1cc(N(CCNc2ccnc3cc(Cl)ccc23)Cc2ccc3c(c2)OCO3)nc(N2CCN(C)CC2)n1 ... class 1
4. COc1cc2c(cc1OCCCCCCN1CCN(c3ncnc4ccccc34)CC1)N=CC1CCCN1C2=O (configuration not stated) ... class 1
5. O=C1OCC2=C1C(c1cccc(F)c1)c1cc3c(cc1N2CCO)OCCO3 (configuration not stated) ... class 0

Record request — test call for C[C@@H](Nc1cc(F)cc(F)c1)c1cc(C(=O)N(C)C)cc2c(=O)cc(N3CCOCC3)oc12
class 0

Please state the recorded outcome for this compound: S=C(NCc1ccc2c(c1)OCO2)N1CCN(c2ncnc3c2oc2ccccc23)CC1
class 0

Recorded test call requested for COc1ccc2c(c1OC)C(=O)O[C@@H]2[C@H]1c2c(c(C#CC#Cc3ccc(F)c(F)c3)c3c(c2OC)OCO3)CCN1C
class 0

What did the test return for Cc1cn(-c2cc(NC(=O)c3ccc(C)c(Nc4nccc(-c5cccnc5)n4)c3)cc(C(F)(F)F)c2)cn1 ?
class 0

Reference source: PubChem BioAssay (NCI)
